Procedure Summary: gradient 5% acetonitrile 3 min, to 50% in 2 min, to 85% in 15 min, held 3 min, 100 µL/min
Reported Conditions: column: Zorbax Extend-C18 2.1 x 50 mm; eluents: water / acetonitrile, 0.1% formic acid
Output schema: class label derived from RP-LC retention time. Mapping: lower range = under 700 s, middle range = from 700 s up to 900 s, upper range = 900 s and over

1) O=C(NCc1ccc(F)cc1)C1(CCO)CCN(c2ncccn2)C1 (stereo not given) = lower range
2) CCN1CCN(c2ccc(-c3nc(-c4ccccc4)no3)cn2)CC1 = lower range
3) Cc1nc(C)c(C(=O)Nc2cc(F)ccc2F)s1 = middle range
4) COc1cc2c(cc1OC)C(C(=O)NCCCN1CCOCC1)C(c1cccs1)N(C)C2=O (stereo not given) = lower range
5) O=C(NCc1ccco1)c1cc(N2C(=O)CCS2(=O)=O)ccc1Cl = lower range
6) Cc1ccccc1NC(=O)c1cc(C(C)C)n2nccc2n1 = upper range
7) COc1nn(C)cc1C(=O)Nc1ccc(Cl)c(Cl)c1 = middle range
8) CC1CS(=O)(=O)N(c2cccc(C(=O)N3CCN(c4ccccc4F)CC3)c2)C1=O (stereo not given) = middle range
9) O=C(NCCSc1ncc(-c2ccc(F)cc2)[nH]1)c1ccccc1Cl = lower range
10) Cc1nn(-c2ccc(F)cc2)c2nc(N3CCCC(C(=O)NC4CCCCC4)C3)sc12 (stereo not given) = upper range
11) O=C(NCCC1=CCCCC1)c1nc(Nc2ccc(F)cc2)c2ccccc2n1 = upper range
12) O=c1n(Cc2cccc(F)c2)nc2ccc(S(=O)(=O)N3CCOCC3)cn12 = middle range
13) COc1ccc2c(c1)C1CC(C)(O2)N(C)C(=O)C1S(=O)(=O)c1ccc(C)cc1 (stereo not given) = upper range
14) COc1ccccc1N1CCN(c2nc3ccc(C)cc3cc2-c2noc(C)n2)CC1 = middle range
15) O=C(NCc1ccncc1)c1sc2ncccc2c1-n1cccc1 = lower range

###

Procedure Summary: gradient 5% acetonitrile 3 min, to 50% in 2 min, to 85% in 15 min, held 3 min, 100 µL/min
Reported Conditions: column: Zorbax Extend-C18 2.1 x 50 mm; eluents: water / acetonitrile, 0.1% formic acid
Readout Name: RP-LC retention time (s)

1) CCN1C(=O)c2cc(S(=O)(=O)Nc3ccc(C)cc3)ccc2Oc2cccnc21 = 970
2) CC(=O)N1CCc2c([nH]c3ccccc23)C12C(=O)Nc1ccccc12 (stereo not given) = 721
3) Cc1ncc2c(n1)CCN(S(=O)(=O)c1ccc(Br)s1)C2 = 778
4) COc1cc(=O)c(C(=O)NC(C)C)nn1-c1ccc(C)cc1 = 694
5) COCCN(Cc1ccc(Cl)cc1)Cc1cc(=O)n2cc(C)ccc2n1 = 662

###

Procedure Summary: gradient 5% acetonitrile 3 min, to 50% in 2 min, to 85% in 15 min, held 3 min, 100 µL/min
Reported Conditions: column: Zorbax Extend-C18 2.1 x 50 mm; eluents: water / acetonitrile, 0.1% formic acid
Catalogue of RP-LC retention time values
Readout Name: RP-LC retention time (s)

1. COCCn1c(CC2CCN(S(=O)(=O)c3ccc(OC)cc3)C2)nc2cccnc21 (stereo not drawn) = 668
2. O=C(CSc1nccn1-c1ccc([N+](=O)[O-])cc1)NC1CCCCC1 = 730
3. CCC(C)NC(=O)CC1CCN(C(=O)c2[nH]c(C)c(C(=O)OC)c2C)CC1 (stereo not drawn) = 663
4. O=C1/C(=C\c2cccs2)Oc2ccccc21 = 958
5. O=C(Nc1ccc(Cl)c(Cl)c1)N1CC(c2nc(-c3cnccn3)no2)C1 = 746
6. COc1ccc(C(=O)N2CCC3(C2)C(=O)Nc2ccccc23)cc1OC (stereo not drawn) = 657
7. Cc1cc(-c2ccc(N3C(=O)CC4(CCCC4)C3=O)c(C)c2)ccc1N1C(=O)CC2(CCCC2)C1=O = 1170
8. O=C(c1cccc(Cl)c1)N1CCC2(CC1)OCC(C(=O)N1CCCC1)N2C(=O)c1cccc(F)c1 (stereo not drawn) = 765
9. O=C1NC2(CCN(C(=O)c3ccccc3F)CC2)N=C1c1ccc(Cl)cc1 = 871
10. CC(=O)O[C@@H]1CC[C@@]2(C)[C@H](C1)[C@H](OC(C)=O)C[C@@H]1[C@@H]2C[C@H]2[C@@H]3CN4C[C@H](C)CC[C@H]4[C@H](C)[C@H]3CC[C@@]12O = 716
11. Cc1ccc(CNC(=O)c2nnc(-c3ccc(S(=O)(=O)N4CCCCC4)cc3)o2)o1 = 952
12. CCOc1ccc(NC(=O)Cn2nc(N3CCSCC3)c3ccccc3c2=O)cc1 = 929
13. O=C1[C@H]2CN(Cc3ccccc3F)C[C@H]2C(=O)N1CCc1ccccc1 = 781
14. Cc1ccc(-n2nc3c(N4CCCC(C(=O)NCc5ccc(F)cc5)C4)nnc(C)c3c2C)cc1 (stereo not drawn) = 761
15. O=C(CN1CCCC1=O)NCc1ccccc1C(F)(F)F = 680
16. Cc1cc(-c2nnc(-c3ccco3)o2)c(C)n1CC(=O)Nc1ccc(F)cc1 = 858
17. O=C(NCc1cccc(Br)c1)C1CCCN(c2nccnc2Sc2ccccc2)C1 (stereo not drawn) = 1130
18. Cc1nc(OCC(=O)NCc2ccc(F)cc2)c2ccccc2n1 = 705

###

Procedure Summary: gradient 5% acetonitrile 3 min, to 50% in 2 min, to 85% in 15 min, held 3 min, 100 µL/min
Reported Conditions: column: Zorbax Extend-C18 2.1 x 50 mm; eluents: water / acetonitrile, 0.1% formic acid
Readout Name: RP-LC retention time (s)

1) CC1CCN(C(=O)C2CC(=O)N(CCc3c[nH]c4ccc(F)cc34)C2)CC1 (stereo not given) = 797
2) Cc1ccc(NS(=O)(=O)c2cc3c(s2)CCN(C(=O)C2CC2)C3)cc1 = 849
3) CC(=O)NCc1cn[nH]c1-c1ccc(Cl)cc1 = 625
4) CCn1cc(CN2CCC(N3C(=O)C4(CCCCC4)C3c3ccncc3)CC2)c(C)n1 (stereo not given) = 532
5) O=C(C1CCCN(c2ncnc3c2nc2n3CCCCC2)C1)N1CCCCCC1 (stereo not given) = 766
6) CCc1cccc(NC(=O)Cc2nnc(-c3cnccn3)o2)c1 = 736
7) O=C(NC1CC1)C1CCN(S(=O)(=O)c2cc(C(=O)N3CCCCCC3)cs2)CC1 = 713
8) CN(CC1CCOCC1)C(=O)Nc1cccc(Cl)c1 = 750
9) CN(C)C[C@@H]1CN(Cc2ccccn2)C[C@H]1NS(=O)(=O)c1cccc(F)c1 = 553
10) COC(=O)Cn1cnc2c(-c3ccc(Br)cc3)csc2c1=O = 943

###

Procedure Summary: gradient 5% acetonitrile 3 min, to 50% in 2 min, to 85% in 15 min, held 3 min, 100 µL/min
Reported Conditions: column: Zorbax Extend-C18 2.1 x 50 mm; eluents: water / acetonitrile, 0.1% formic acid
Please mark T if the recorded RP-LC retention time is equal to or greater than 700 s, and F if it falls below.

1. CCCc1nc(NC(C)c2ccc(OC)c(OC)c2)ncc1C(=O)O (stereo not given) = T
2. CCCC(=O)N1CCN(c2ccc(=O)n(-c3ccc(C(C)C)cc3)n2)CC1 = T
3. O=c1c2cc(-c3ccc(F)cc3)nn2cnn1Cc1nc(-c2ccccc2Cl)no1 = T
4. N#Cc1cccc(NC(=O)Cn2nc3n(c2=O)CCCC3)c1 = F
5. COC(=O)c1c(C)[nH]c(C(=O)N2CCCC(C(=O)NCc3ccc(OC)cc3)C2)c1C (stereo not given) = T
6. CCOc1cccc(C2CC(c3cccc(OC)c3)=NC3(CCN(C(C)C)CC3)N2)c1O (stereo not given) = F
7. CCN1C(=O)c2cccnc2Sc2cc(CNC(=O)c3cccn3C)ccc21 = T
8. O=C(Nc1ccc2c(c1)OCCO2)N1CCCC(Cn2cnc3cccnc32)C1 (stereo not given) = F
9. CCC(C)NC(=O)Cn1c(=O)n(-c2cc(OC)cc(OC)c2)c(=O)c2ccccc21 (stereo not given) = T
10. CC(C)(C)NCC(O)c1ccccc1Cl (stereo not given) = F
11. O=C(NCc1cccc(Cl)c1)C1CCCN(c2nccnc2Oc2ccccc2)C1 (stereo not given) = T
12. Cc1noc(C)c1CCNC(=O)CN1C(=O)C2CCCCN2c2ccc(S(=O)(=O)N(C)C)cc21 (stereo not given) = T
13. O=C(Nc1ccc(F)c(Cl)c1)C1CCN(C(=O)NCc2cccs2)CC1 = T
14. N#Cc1ccc(C(=O)NCc2cnoc2-c2ccc(F)cc2)cc1 = T
15. O=C(CCCS(=O)(=O)Cc1ccccc1)Nc1nc2c(s1)Cc1ccccc1-2 = T
16. CCOC(=O)C1CCN(C(=O)c2ccc3c(c2)N(CC(=O)N2CCCC2)C(=O)CO3)CC1 = F

###

Catalogue of RP-LC retention time values
Procedure Summary: gradient 5% acetonitrile 3 min, to 50% in 2 min, to 85% in 15 min, held 3 min, 100 µL/min
Reported Conditions: column: Zorbax Extend-C18 2.1 x 50 mm; eluents: water / acetonitrile, 0.1% formic acid
Readout Name: RP-LC retention time (s)

1. CCn1ccc2ccn(CC(=O)NCc3ccc4c(c3)OCO4)c(=O)c21 = 726
2. O=C(NCc1ccco1)C1CCN(c2ncccc2-c2nc(-c3ccc(Cl)cc3)no2)CC1 = 1090
3. CC(C)CCn1nc2c(S(=O)(=O)N3CCCCC3)cccn2c1=O = 906
4. COc1ccccc1CNC(=O)C1CCN(c2cc(N3CCSCC3)ncn2)CC1 = 717
5. CN(CC1(C)CCOCC1)C(=O)Cc1ccccc1Cl = 818
6. CCc1ccc(C2=C(C)C(N3CCCN(C(=O)CCOC)CC3)=NS2(=O)=O)cc1 = 795
7. CN1CCN(C(=O)c2c3c(nc4ccccc24)C(=O)N(C2CCCCC2)C3)CC1 = 600
8. CSc1ccc(-c2nc3cnccn3c2Nc2cccc(C(=O)NCCN(C)C)c2)cc1 = 605
9. CN(CC1(C)CCOCC1)S(=O)(=O)c1cc(F)ccc1F = 614
10. c1ccc(-n2nnnc2Oc2ccc(CNCCc3c[nH]c4ccccc34)cc2)cc1 = 748

Origin of the recorded values: the METLIN SMRT retention time set (Domingo-Almenara et al. 2019)
